Tested on: MRC-5 (lung) normal cells
protocol_description: MTT cytotoxicity assay, MRC-5
settings: read-out: In Vitro Cytotoxicity IC50, MRC-5; MTT, 48 h treatment
assay_endpoint: log10 IC50 (log10 of the value in µM)
Response schema: value (number) is log10 of IC50 in units of µM.

1. Cc1c(Cl)cccc1Nc1ccccc1C1=[O+][Ru-4]23([O]1)([n+]1ccccc1-c1cccc[n+]12)[P+](c1ccccc1)(c1ccccc1)CCC[P+]3(c1ccccc1)c1ccccc1.F[P-](F)(F)(F)(F)F [complex 3, [Ru(TFen)(bipy)(dppp)]PF6] | 0.55
2. [Cl][Ru-4]12([Cl])([n+]3ccccc3-c3cccc[n+]31)[P+](c1ccccc1)(c1ccccc1)CCC[P+]2(c1ccccc1)c1ccccc1 [[RuCl2(bipy)(dppp)], cis-[RuCl2(bipy)(dppp)]] | 1.61
3. FC(F)(F)c1cccc(Nc2ccccc2C2=[O+][Ru-4]34([O]2)([n+]2ccccc2-c2cccc[n+]23)[P+](c2ccccc2)(c2ccccc2)CCC[P+]4(c2ccccc2)c2ccccc2)c1.F[P-](F)(F)(F)(F)F [complex 4, [Ru(FFen)(bipy)(dppp)]PF6] | 0.64
4. F[P-](F)(F)(F)(F)F.c1ccc(Nc2ccccc2C2=[O+][Ru-4]34([O]2)([n+]2ccccc2-c2cccc[n+]23)[P+](c2ccccc2)(c2ccccc2)CCC[P+]4(c2ccccc2)c2ccccc2)cc1 [complex 1, [Ru(Fen)(bipy)(dppp)]PF6] | 0.39

Now take the following molecule into account.
**Query** # lookup: MRC-5 (lung) normal cells log10 IC50, key = Cc1cccc(Nc2ccccc2C2=[O+][Ru-4]34([O]2)([n+]2ccccc2-c2cccc[n+]23)[P+](c2ccccc2)(c2ccccc2)CCC[P+]4(c2ccccc2)c2ccccc2)c1C.F[P-](F)(F)(F)(F)F [complex 2, [Ru(MFen)(bipy)(dppp)]PF6]
**Result** 0.37

----------
Let's look at some molecules and their measured IC50.
Test system: MDA-MB-231 (breast) cancer cells
protocol_description: MTT cytotoxicity assay, MDA-MB-231
settings: read-out: In Vitro Cytotoxicity IC50, MDA-MB-231; MTT, 48 h treatment
Please answer using a numeric value trailed by its unit.

Take a look at these entries with their results.
1) F[P-](F)(F)(F)(F)F.c1ccc(Nc2ccccc2C2=[O+][Ru-4]34([O]2)([n+]2ccccc2-c2cccc[n+]23)[P+](c2ccccc2)(c2ccccc2)CCC[P+]4(c2ccccc2)c2ccccc2)cc1 [complex 1, [Ru(Fen)(bipy)(dppp)]PF6] | 2.87 µM
2) FC(F)(F)c1cccc(Nc2ccccc2C2=[O+][Ru-4]34([O]2)([n+]2ccccc2-c2cccc[n+]23)[P+](c2ccccc2)(c2ccccc2)CCC[P+]4(c2ccccc2)c2ccccc2)c1.F[P-](F)(F)(F)(F)F [complex 4, [Ru(FFen)(bipy)(dppp)]PF6] | 2.34 µM
3) Cc1c(Cl)cccc1Nc1ccccc1C1=[O+][Ru-4]23([O]1)([n+]1ccccc1-c1cccc[n+]12)[P+](c1ccccc1)(c1ccccc1)CCC[P+]3(c1ccccc1)c1ccccc1.F[P-](F)(F)(F)(F)F [complex 3, [Ru(TFen)(bipy)(dppp)]PF6] | 3.71 µM
4) [Cl][Ru-4]12([Cl])([n+]3ccccc3-c3cccc[n+]31)[P+](c1ccccc1)(c1ccccc1)CCC[P+]2(c1ccccc1)c1ccccc1 [[RuCl2(bipy)(dppp)], cis-[RuCl2(bipy)(dppp)]] | 26.1 µM

Now take the following molecule into account.
**Query** # lookup: MDA-MB-231 (breast) cancer cells IC50, key = Cc1cccc(Nc2ccccc2C2=[O+][Ru-4]34([O]2)([n+]2ccccc2-c2cccc[n+]23)[P+](c2ccccc2)(c2ccccc2)CCC[P+]4(c2ccccc2)c2ccccc2)c1C.F[P-](F)(F)(F)(F)F [complex 2, [Ru(MFen)(bipy)(dppp)]PF6]
**Result** 3.99 µM
